Origin of values: ChEMBL document CHEMBL3244185

tested on: Trypanosoma brucei rhodesiense; assay: Antitrypanosomal activity against Trypanosoma rhodesiense CT infected in ICR/HA Swiss mouse assessed as increase in mean survival time at 2.5 mg/kg; format: functional
Assay readout: Survival (days)
Answer in days, number only, no unit symbol.

Inquiry: // query Survival value for entry CC1CN[C+](c2ccc(-c3ccc(-c4ccc([C+]5NCC(C)N5)cc4)o3)cc2)N1.[Cl-].[Cl-] (centres undefined)
Reply text: 0.6

Inquiry: // query Survival value for entry Cc1c(-c2ccc([C+]3NCCN3)cc2)oc(-c2ccc([C+]3NCCN3)cc2)c1C.[Cl-].[Cl-]
Reply text: 18

Inquiry: // query Survival value for entry CN1CCCN[C+]1c1ccc(-c2ccc(-c3ccc([C+]4NCCCN4C)cc3)o2)cc1.[Cl-].[Cl-]
Reply text: 0.3

Inquiry: // query Survival value for entry N[C+](N)c1ccc(-c2oc(-c3ccc([C+](N)N)cc3)c(Cl)c2Cl)cc1.[Cl-].[Cl-]
Reply text: 6.2
